Cited source for all entries: PubChem BioAssay (NCI)

Consider the following molecules; for each one, report its TGI.
# Tested on: KM20L2 colon
# EXPERIMENT NOTES: NCI tumour cell line growth inhibition, 48 h

IN: # return recorded TGI for input CCC12CCCC(=O)N1C(CO)C(c1ccccc1)O2 (stereo not drawn)
OUT: > 100 µM

IN: Entry CC(=O)Oc1ccc(O)c(O)c1C/C=C(\C)CC/C=C(\C)CC/C=C(\C)CCC=C(C)C needs its TGI filled in; supply it.
OUT: 3.74 µM

IN: Look up TGI of COc1cccc(C(=O)C2C(=O)N(C)CCc3ccccc32)c1OC (stereo not drawn) and report it.
OUT: > 100 µM

IN: Given the molecule COc1cc([C@@H]2c3cc4c(cc3[C@@H](NC(=O)c3ccccc3)C3COC(=O)[C@@H]32)OCO4)cc(OC)c1O (stereo partly drawn) , write its reported TGI.
OUT: 12.8 µM

IN: Please give measured TGI of the following entry: COc1ccc(NC(=O)c2cc(OC)c(OC)c(OC)c2)cc1
OUT: > 100 µM

IN: Specify measured TGI for COc1ccc(O)c(C#N)c1C#N .
OUT: > 100 µM

IN: Give TGI for the following molecule: COc1cc(/C=C/C(=O)c2sc(Nc3ccccc3)nc2C)ccc1O
OUT: > 100 µM

IN: Provide only the value of recorded TGI for CCCCCCCCCCCCCC(=O)CBr
OUT: 26 µM

###

# System: BT-549 breast
# EXPERIMENT NOTES: NCI tumour cell line growth inhibition, 48 h
MEASURED METRIC: TGI (µM)
Hi! Could you send only the number? It should be in µM, unit omitted.

IN: Specify reported TGI for the compound shown: CC(C)(C)c1ccc(S(=O)(=O)N[C@H]2CC[C@H]3[C@@H]4CCc5cc(OS(=O)(=O)O)ccc5[C@H]4CC[C@]23C)cc1
OUT: 4.2

IN: Let me know recorded TGI for CC12Cc3cc4c(cc3C1(c1ccc([N+](=O)[O-])cc1)OCCO2)OCO4 (stereo unspecified) , thanks.
OUT: 91.9

IN: Find the measured TGI of Clc1nc(Cl)c2c(ncn2C/C=C\Cn2cnc3c(Cl)nc(Cl)nc32)n1 and report it.
OUT: 2.97

IN: State its TGI: CN(C)CCOc1ccc2c(c1)C/C(=C/c1ncc([N+](=O)[O-])n1C)C2=O
OUT: 3.74

IN: Please give measured TGI of the following entry: O=C1/C(=C/c2ccc(O)cc2)COc2ccc(-c3ccccc3)cc21
OUT: 13

IN: Supply recorded TGI for Brc1ccc2[nH]cc(-c3nc(-c4c[nH]c5ccccc45)cs3)c2c1 here.
OUT: 23.4

IN: Assign TGI to the following record: S=c1[nH]c(=S)c2cc(Sc3ccc4[nH]c(=S)[nH]c(=S)c4c3)ccc2[nH]1
OUT: 73.2

IN: Give TGI for Oc1ccc(CCCCCCc2ccc(O)cc2)cc1
OUT: 18.7

IN: Using the record for CCCCN(Cc1ccc(F)cc1)c1ccc(CO)c(Cl)c1 , state its measured TGI.
OUT: 34.6

IN: Determine from records and report TGI for Fc1cccc(COc2ccc(Nc3ncnc4cc(-c5ccc[nH]5)sc34)cc2Cl)c1
OUT: 14.9

IN: Recall and state the measured TGI for O=[N+]([O-])c1ccc2nc(/C=C(\O)c3ccc(F)cc3)c(/C=C(\O)c3ccc(F)cc3)nc2c1 .
OUT: 91.5
